Values from ChEMBL document CHEMBL1146997

biological target: Phospholipase A2, membrane associated (Homo sapiens, UniProt P14555); assay: Inhibition of sPLA2-2A in HEK293 cell
ENDPOINT_LABEL: IC50 (µM)
Write the value in µM as a bare number.

# return IC50 of O=c1cc(-c2ccc(-c3c(-c4ccccc4)oc4ccccc4c3=O)cc2)oc2ccccc12 (system: Phospholipase A2, membrane associated (Homo sapiens, UniProt P14555)) 23.2

***
Determine reported IC50 for O=c1cc(-c2ccc(-c3ccc4oc(-c5ccccc5)cc(=O)c4c3)cc2)oc2ccccc12 ; test system: Phospholipase A2, membrane associated (Homo sapiens, UniProt P14555). 63.9

Please report IC50 with Phospholipase A2, membrane associated (Homo sapiens, UniProt P14555) for item O=c1cc(-c2ccc(-c3ccc(-c4cc(=O)c5ccccc5o4)cc3)cc2)oc2ccccc12 . 3

Param request: IC50 | system Phospholipase A2, membrane associated (Homo sapiens, UniProt P14555) | item O=c1cc(-c2cccc(-c3ccc4oc(-c5ccccc5)cc(=O)c4c3)c2)oc2ccccc12 19.9

###

Quick reference: IC50 of the listed items.
Molecular target: Phospholipase A2, membrane associated (Homo sapiens)
Sequence (P14555 whole entry): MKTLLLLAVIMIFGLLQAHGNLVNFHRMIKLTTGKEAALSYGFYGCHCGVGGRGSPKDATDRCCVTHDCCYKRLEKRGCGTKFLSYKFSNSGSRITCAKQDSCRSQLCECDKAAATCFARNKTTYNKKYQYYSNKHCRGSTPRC
Assay: Inhibition of sPLA2-2A in HEK293 cell
Type: cell-based

Before answering, review these 3 worked examples.
Report value: IC50, system: Phospholipase A2, membrane associated (Homo sapiens), compound: O=c1cc(-c2ccccc2)oc2ccc(-c3ccc4oc(-c5ccccc5)cc(=O)c4c3)cc12 69.3 µM

Give Phospholipase A2, membrane associated (Homo sapiens) IC50 for the following compound: O=c1cc(-c2ccc(Oc3cc(-c4cc(=O)c5c(O)cc(O)cc5o4)ccc3O)cc2)oc2cc(O)cc(O)c12 3.5 µM

Please tell me the measured IC50 for O=c1cc(-c2ccc(-c3cccc(-c4cc(=O)c5ccccc5o4)c3)cc2)oc2ccccc12 ; system: Phospholipase A2, membrane associated (Homo sapiens). 15.5 µM

Others:
Please indicate recorded IC50 of O=c1cc(-c2ccc(O)c(-c3c(O)cc(O)c4c(=O)cc(-c5ccc(O)cc5)oc34)c2)oc2cc(O)cc(O)c12 measured with Phospholipase A2, membrane associated (Homo sapiens). 23.8 µM
